# measurementTarget: UniProtKB Q94F81
# Sequence (Q94F81 whole entry): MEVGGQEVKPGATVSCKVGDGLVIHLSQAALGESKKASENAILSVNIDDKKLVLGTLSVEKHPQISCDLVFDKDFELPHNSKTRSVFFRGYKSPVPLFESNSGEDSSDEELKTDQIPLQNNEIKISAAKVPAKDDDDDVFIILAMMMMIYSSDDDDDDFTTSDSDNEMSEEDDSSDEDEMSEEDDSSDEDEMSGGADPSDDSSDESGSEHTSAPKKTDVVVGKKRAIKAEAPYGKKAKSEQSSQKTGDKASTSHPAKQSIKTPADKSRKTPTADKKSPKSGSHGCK
# assayText: Inhibitory concentration against Histone deacetylase 2 in maize
measurementType: IC50

| compoundString | result |
| --- | --- |
| O=C(CCCCCCSc1nc(O)cc(Cc2ccccc2)n1)NO | 37 nM |
| O=C(CCSc1nc(O)cc(Cc2ccccc2)n1)NO | 38 nM |
| CCCc1cc(O)nc(SCCCCCC(=O)NO)n1 | 135 nM |
| O=C(CCCCCSc1nc(-c2ccccc2)cc(=O)[nH]1)NO | 12 nM |
| O=C(/C=C/Sc1nc(O)cc(Cc2ccccc2)n1)NO | 9000 nM |
| O=C(CCCCSc1nc(O)cc(Cc2ccccc2)n1)NO | 125 nM |
| O=C(CCCCCSc1nc(Cc2ccccc2)cc(=O)[nH]1)NO | 18 nM |
| Cc1cc(O)nc(SCCCCCC(=O)NO)n1 | 110 nM |

The measurements presented in this section are drawn from ChEMBL document CHEMBL1143449.
